Listing of recorded recombinant UMI read abundance (log10) by entry.
# method summary: recombinant UMI read abundance after kanamycin selection (control-corrected) (log10(CPM+1)); higher = more efficient recombination; extreme values may be limits of the assay; sequences stand for … in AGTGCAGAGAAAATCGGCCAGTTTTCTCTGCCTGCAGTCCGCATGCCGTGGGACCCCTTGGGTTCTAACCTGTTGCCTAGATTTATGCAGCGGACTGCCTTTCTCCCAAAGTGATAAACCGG…AGGTTGGTTTCACT; site = the 11-nt donor;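 further: IS621 bridge recombinase in Escherichia coli cells against a fixed T5 target plasmid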
measurement kind: recombinant UMI read abundance (log10)

[[record]]
residue_codes = "ACATCTACATGGACCGGTTTTCCCGGTAATCCGTATTTGTC (site ACATCTACTGA)"
reported = 0

[[record]]
residue_codes = "GCGAAGTCATGGACCGGTTTTCCCGGTAATCCGTATTTGGG (site GCGAAGGCTCC)"
reported = 0.019

[[record]]
residue_codes = "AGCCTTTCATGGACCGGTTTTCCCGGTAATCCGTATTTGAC (site AGCGTTTCTGT)"
reported = 0

[[record]]
residue_codes = "GAATGTCCATGGACCGGTTTTCCCGGTAATCCGTATTTGCA (site GAATGGCCTTG)"
reported = 0

[[record]]
residue_codes = "TGGCCGTCATGGACCGGTTTTCCCGGTAATCCGTATTTGGC (site TGGCCGTCTGC)"
reported = 0.431

[[record]]
residue_codes = "CCGTGTACATGGACCGGTTTTCCCGGTAATCCGTATTTGCT (site CCGTCTACTAG)"
reported = 0.00869

[[record]]
residue_codes = "TCCAGTTCATGGACCGGTTTTCCCGGTAATCCGTATTTGCC (site TCCACTTCTGG)"
reported = 0

[[record]]
residue_codes = "AGGACATCATGGACCGGTTTTCCCGGTAATCCGTATTTGCT (site AGGACATCTAG)"
reported = 1.48

[[record]]
residue_codes = "TTAAGTCCATGGACCGGTTTTCCCGGTAATCCGTATTTGTA (site TGAAGTCCTTA)"
reported = 0.0153

[[record]]
residue_codes = "CCCCATACATGGACCGGTTTTCCCGGTAATCCGTATTTGTA (site CCCCACACTTA)"
reported = 0.0183

[[record]]
residue_codes = "TTAGCTACATGGACCGGTTTTCCCGGTAATCCGTATTTGTG (site TTAGCTACTCA)"
reported = 0.319

[[record]]
residue_codes = "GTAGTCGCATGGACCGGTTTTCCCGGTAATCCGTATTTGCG (site GTCGTCGCTCG)"
reported = 0.00603

[[record]]
residue_codes = "CGAGCTTCATGGACCGGTTTTCCCGGTAATCCGTATTTGCT (site CGAGCTTCTAG)"
reported = 1.85

[[record]]
residue_codes = "CGTGGCACATGGACCGGTTTTCCCGGTAATCCGTATTTGTT (site CGTGGAACTAA)"
reported = 0.00865

[[record]]
residue_codes = "ACATCTACATGGACCGGTTTTCCCGGTAATCCGTATTTGTC (site ACATCTACTCA)"
reported = 0.0109

[[record]]
residue_codes = "CTATTAACATGGACCGGTTTTCCCGGTAATCCGTATTTGGA (site CTAGTAACTTC)"
reported = 0.397

[[record]]
residue_codes = "GTAGGTACATGGACCGGTTTTCCCGGTAATCCGTATTTGTC (site GTAGGTACTGT)"
reported = 1.35

[[record]]
residue_codes = "TCCGATTCATGGACCGGTTTTCCCGGTAATCCGTATTTGAG (site TCCGATTCTCT)"
reported = 0.00583

